target: hGLP-1R (Homo sapiens, UniProt P43220); assay: cell-based or functional assay
*1 amine or outer side, *2 acyl side, *3 side chain or, on linkers, in order; H or OH if unused. Where no end group is shown, it is not given here. Side-chain parts run from the residue outwards. [ ]: non-standard residue; d: D form. The star is where a group is joined. Decanoyl(10-(4-HOOC-PhO)) = O=C(O)c1ccc(OCCCCCCCCCC(=O)*)cc1; αMePhe(2-F) = C[C@](N)(Cc1ccccc1F)C(=O)O; γGlu = O=C(O)[C@H](CCC(=O)[*:2])N[*:1]; αMeY = C[C@](N)(Cc1ccc(O)cc1)C(=O)O; αMeL = CC(C)C[C@](C)(N)C(=O)O; Orn = NCCC[C@H](N)C(=O)O; AEEA = NCCOCCOCC(=O)O; Aib = CC(C)(N)C(=O)O
OBSERVATION_TYPE: cAMP Emax (%)
State just the number; it will be interpreted in %.

Provide measured cAMP Emax value, entry: Y[Aib]EGT[αMePhe(2-F)]TSDV[Aib]I[αMeL]LD[Orn]IAQ[Aib]K([AEEA-AEEA-γGlu-Decanoyl(10-(4-HOOC-PhO))])FI[dE][αMeY]LIEGGPSSGAPPPSK([AEEA-AEEA-γGlu-Decanoyl(10-(4-HOOC-PhO))])-NH2 [Example 383] 105

Provide measured cAMP Emax value, entry: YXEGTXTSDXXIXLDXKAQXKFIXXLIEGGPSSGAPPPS (Y-Aib-EGT-αMeF(2F)-TSD-4Pal-Aib-I-αMeL-LD-Orn-K(PEG3-(γ-Glu)-CO-(CH2)12-CO2H)AQ-Aib-K(PEG3-(γ-Glu)-CO-(CH2)12-CO2H)FI-(D-Glu)-αMeY-LIEGGPSSGAPPPS-NH2) [Example 404] 94.3

Provide measured cAMP Emax value, entry: Y[Aib]EGT[αMePhe(2-F)]TSDV[Aib]I[αMeL]LD[Orn]K([AEEA-AEEA-γGlu-Decanoyl(10-(4-HOOC-PhO))])AQ[Aib]K([AEEA-AEEA-γGlu-Decanoyl(10-(4-HOOC-PhO))])FI[dE][αMeY]LI[Orn]GGPSSGAPPPS-NH2 [Example 410] 94

Provide measured cAMP Emax value, entry: YXEGTXTSDXXIXLDXQAQXKFIXXLIKGGPSSGAPPPS (Y-Aib-EGT-αMeF(2F)-TSD-4Pal-Aib-I-αMeL-LD-Orn-QAQ-Aib-K((2-[2-(2-Amino-ethoxy)-ethoxy]-acetyl)2-(γ-Glu)-CO-(CH2)12-CO2H)FI-(D-Glu)-αMeY-LIK((2-[2-(2-Amino-ethoxy)-ethoxy]-acetyl)2-(γ-Glu)-CO-(CH2)12-CO2H)GGPSSGAPPPS-NH2) [Example 488] 113

Provide measured cAMP Emax value, entry: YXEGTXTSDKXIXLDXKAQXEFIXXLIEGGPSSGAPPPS (Y-Aib-EGT-αMeF(2F)-TSDK((2-[2-(2-Amino-ethoxy)-ethoxy]-acetyl)3-(γ-Glu)-CO-(CH2)10-CH3)-Aib-I-αMeL-LD-Orn-K((2-[2-(2-Amino-ethoxy)-ethoxy]-acetyl)3-(γ-Glu)-CO-(CH2)10-CH3)AQ-Aib-EFI-(D-Glu)-αMeY-LIEGGPSSGAPPPS-NH2) [Example 421] 101

Provide measured cAMP Emax value, entry: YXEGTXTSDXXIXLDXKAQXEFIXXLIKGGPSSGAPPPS (Y-Aib-EGT-αMeF(2F)-TSD-4Pal-Aib-I-αMeL-LD-Orn-K((2-[2-(2-Amino-ethoxy)-ethoxy]-acetyl)2-(γ-Glu)-CO-(CH2)12-CO2H)AQ-Aib-EFI-(D-Glu)-αMeY-LIK((2-[2-(2-Amino-ethoxy)-ethoxy]-acetyl)2-(γ-Glu)-CO-(CH2)12-CO2H)GGPSSGAPPPS-NH2) [Example 358] 107

Provide measured cAMP Emax value, entry: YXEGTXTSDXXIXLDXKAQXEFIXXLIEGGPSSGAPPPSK (Y-Aib-EGT-αMeF(2F)-TSD-4Pal-Aib-I-αMeL-LD-Orn-K((2-[2-(2-Amino-ethoxy)-ethoxy]-acetyl)3-(γ-Glu)-CO-(CH2)10-CH3)AQ-Aib-EFI-(D-Glu)-αMeY-LIEGGPSSGAPPPSK((2-[2-(2-Amino-ethoxy)-ethoxy]-acetyl)3-(γ-Glu)-CO-(CH2)10-CH3)-NH2) [Example 424] 102

Provide measured cAMP Emax value, entry: YXEGTXTSDKSIXLDXKAQXEXIXXLIEGGPSSGAPPPS (Y-Aib-EGT-αMeF(2F)-TSDK((2-[2-(2-Amino-ethoxy)-ethoxy]-acetyl)2-(γ-Glu)-CO-(CH2)10-CH3)SI-αMeL-LD-Orn-K((2-[2-(2-Amino-ethoxy)-ethoxy]-acetyl)2-(γ-Glu)-CO-(CH2)10-CH3)AQ-Aib-E-αMeF-I-(D-Glu)-αMeY-LIEGGPSSGAPPPS-NH2) [Example 293] 102

Provide measured cAMP Emax value, entry: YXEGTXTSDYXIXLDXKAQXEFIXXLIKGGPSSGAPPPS (Y-Aib-EGT-αMeF(2F)-TSDY-Aib-I-αMeL-LD-Orn-K((2-[2-(2-Amino-ethoxy)-ethoxy]-acetyl)-(γ-Glu)-(10-(4-carboxyphenoxy)decanoyl))AQ-Aib-EFI-(D-Glu)-αMeY-LIK((2-[2-(2-Amino-ethoxy)-ethoxy]-acetyl)-(γ-Glu)-(10-(4-carboxyphenoxy)decanoyl))GGPSSGAPPPS-NH2) [Example 373] 101

Provide measured cAMP Emax value, entry: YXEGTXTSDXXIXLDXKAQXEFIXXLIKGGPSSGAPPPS (Y-Aib-EGT-αMeF(2F)-TSD-4Pal-Aib-I-αMeL-LD-Orn-K((2-[2-(2-Amino-ethoxy)-ethoxy]-acetyl)2-CO-(CH2)12-CO2H)AQ-Aib-EFI-(D-Glu)-αMeY-LIK((2-[2-(2-Amino-ethoxy)-ethoxy]-acetyl)2-CO-(CH2)12-CO2H)GGPSSGAPPPS-NH2) [Example 387] 101

Provide measured cAMP Emax value, entry: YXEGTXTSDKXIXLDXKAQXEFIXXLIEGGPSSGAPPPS (Y-Aib-EGT-αMeF(2F)-TSDK((2-[2-(2-Amino-ethoxy)-ethoxy]-acetyl)2-(γ-Glu)-CO-(CH2)10-CH3)-Aib-I-αMeL-LD-Orn-K((2-[2-(2-Amino-ethoxy)-ethoxy]-acetyl)2-(γ-Glu)-CO-(CH2)10-CH3)AQ-Aib-EFI-(D-Glu)-αMeY-LIEGGPSSGAPPPS-NH2) [Example 292] 104

Provide measured cAMP Emax value, entry: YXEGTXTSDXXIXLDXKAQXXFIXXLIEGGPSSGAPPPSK (Y-Aib-EGT-αMeF(2F)-TSD-4Pal-Aib-I-αMeL-LD-Orn-K((2-[2-(2-Amino-ethoxy)-ethoxy]-acetyl)2-(γ-Glu)-CO-(CH2)10-CH3)AQ-Aib-4Pal-FI-(D-Glu)-αMeY-LIEGGPSSGAPPPSK((2-[2-(2-Amino-ethoxy)-ethoxyl-acetyl)2-(γ-Glu)-CO-(CH2)10-CH3)-NH2) [Example 420] 99.7
